Hey, just so you know, these numbers are from patent US20250109203A1.

# Assayed target: human γδ TCR (Vγ9Vδ2) on human Vδ2+ γδ T cells (human) (UniProt A0JD36)
# Protocol description: flow cytometry on expanded human Vδ2+ γδ T cells, nonlinear fit
Param label: returns yes (1) when Kd < 60 nM, returns no (0) otherwise, including exact equality.

The following binders have reported results that may help.
Binder | Group
hu1D7v63 VHH-hIgG1 Fc-NNT (monomeric) (VHH) VHH: EVQLLESGGGEVQPGGSLRLSCAASRGKISQYRMGWYRQAPGKERELVAHISNTGDAAEYVAPVKDRFTISRDNAKNALYLQMSSLRAEDTAVYKCNTVEDILAWGQGTLVTVRP | yes (1)
hu1D7v61 VHH-hIgG1 Fc-NNT (monomeric) (VHH) VHH: EVQLLESGGGEVQPGGSLRLSCVASRGKISQYRMGWYRQAPGKERELVAHISNTGDAAEYVDSVKDRFTISRDSTKNALYLQMSSLRAEDTAVYKCNTVEDILAWGQGTLVTVRP | yes (1)
hu1D7v93 VHH-hIgG1 Fc-NNT (monomeric) (VHH) VHH: EVQLLESGGGEVQPGGSLRLSCVASRGKISQYRMGWYRQAPGKERELVAHISNTGDAAEYVDSVKDRFTISRDSTKNALYLQMSSLRAEDTAVYKCNQVEDILAWGQGTLVTVRP | no (0)
hu1D7v33 VHH-hIgG1 Fc-NNT (monomeric) (VHH) VHH: EVQLLESGGGEVQPGGSLRLSCVASRGKISQYRMGWYRQAPGKELEWVAHISNTGDAAEYVDSVKDRFTISRDSTKNAVYLQMSSLRAEDTAVYKCNSVEDILAWGQGTLVTVKP | yes (1)
hu1D7v158-8 VHH-hIgG1 Fc-NNT (monomeric) (VHH) VHH: EVQLLESGGGEVQPGGSLRLSCVASRGKISQYRMGWYRQAPGKQRELVAHISNTGDAAEYAESVKGRFTISRDNAKNALYLQMNSLRAEDTAVYKCNTVEDILAWGQGTLVTVEP | yes (1)
hu1D7v60 VHH-hIgG1 Fc-NNT (monomeric) (VHH) VHH: EVQLLESGGGEVQPGGSLRLSCVASRGKISQYRMGWYRQAPGKERELVAHISNTGDAAEYVDSVKDRFTISRDNAKNALYLQMSSLRAEDTAVYKCNSVEDILAWGQGTLVTVRP | yes (1)
hu1D7v67 VHH-hIgG1 Fc-NNT (monomeric) (VHH) VHH: EVQLLESGGGEVQPGGSLRLSCVASRGKISQYRMGWYRQAPGKERELVAHISNTGDAAEYVDSVKDRFTISRDSTKNALYLQMSSLRAEDTAVYKCQSVEDILAWGQGTLVTVRP | no (0)
hu1D7v31 VHH-hIgG1 Fc-NNT (monomeric) (VHH) VHH: EVQLLESGGGEVQPGGSLRLSCVASRGKISQYRMGWYRQAPGKELEWVAHISNTGDAAEYVAPVKGRFTISRDSTKNAVYLQMSSLRAEDTAVYKCNSVEDILAWGQGTLVTVKP | yes (1)

Prompt: Given hu1D7v100 VHH-hIgG1 Fc-NNT (monomeric) (VHH) VHH: EVQLLESGGGEVQPGGSLRLSCVASRGKISQYRMGWYRQAPGKERELVAHISNTGDAAEYVDSVKDRFTISRDSTKNALYLQMSSLRAEDTAVYYCNSVEDILAWGQGTLVTVRP , is recorded Kd strictly lower than 60 nM?
Completion: no (0)
